# System: winter barley
# Experiment description: Test C postemergence test
# Assay type: in vivo, Hordeum vulgare
# Condition set: 125 g ai/ha, scale 0 to 100, 0 no effect, 100 complete control
Measured parameter: Plant response rating, Barley

Cn1nc(C(F)(F)F)c(C[S+]([O-])c2cccc[n+]2[O-])c1OC(F)F (stereo not shown) :: 0
Cn1nc(C(F)(F)F)c(C[S+]([O-])c2ccc(Cl)c[n+]2[O-])c1OCC(F)(F)F (racemic) :: 10
CC(Oc1c(CS(=O)(=O)c2cccc[n+]2[O-])c(C(F)(F)F)nn1C)C(F)(F)F (stereo not shown) :: 0

Consider the additional compound presented here.
Exercise: Tell me measured Plant response rating, Barley for "CCn1nc(C(F)(F)F)c(CS(=O)(=O)c2cc(C)cc[n+]2[O-])c1OCC(F)(F)F" please.
Solution: 5

* * *

# Test system: Surinam grass
# Experiment description: Test C pre-/postemergence test
# Type: in vivo, Brachiaria decumbens
# Condition set: preemergence, 250 g ai/ha; scale 0 (no effect) to 100 (complete control)
Provide the reported Surinam Grass plant response rating of each item.

List the reported Surinam Grass plant response rating of each compound below.
1. C#CCOc1c(C[S+]([O-])c2cccc[n+]2[O-])c(C(F)(F)F)nn1C (stereo not drawn)
2. Cn1nc(C(F)(F)F)c(CS(=O)(=O)c2cccc[n+]2[O-])c1OCC(F)F
3. CCn1nc(C(F)(F)F)c(CS(=O)(=O)c2cc(C)cc[n+]2[O-])c1OCC(F)(F)F

Solution:
100
100
100

* * *

Provide the reported Plant response rating, Crabgrass, Large of each item.
# Test system: crabgrass
# Experiment description: Test A pre-/postemergence greenhouse test
# Type: in vivo, Digitaria sanguinalis
# Condition set: Postemergence, 125 g ai/ha; 0 to 100 scale where 0 is no effect and 100 is complete control

Some solved entries appear below for comparison.
Cn1nc(C(F)(F)F)c(C[S+]([O-])c2ccc(F)c[n+]2[O-])c1OC(F)F (stereo not drawn) :: 80
CCn1nc(C(F)(F)F)c(CS(=O)(=O)c2cc(C)cc[n+]2[O-])c1OCC(F)(F)F :: 80
CCc1cc[n+]([O-])c([S+]([O-])Cc2c(C(F)(F)F)nn(C)c2OCC(F)(F)F)c1 (stereo not drawn) :: 50
Cn1nc(C(F)(F)F)c(C[S+]([O-])c2cc(Cl)cc[n+]2[O-])c1OC(F)F (stereo not drawn) :: 60

List the reported Plant response rating, Crabgrass, Large of each compound below.
1. Cn1nc(C(F)(F)F)c(CS(=O)(=O)c2ccc(Cl)c[n+]2[O-])c1OCC(F)F
2. Cn1nc(C(F)(F)F)c(C[S+]([O-])c2ccc(F)c[n+]2[O-])c1OCC(F)(F)F (stereo not drawn)
3. Cn1nc(C(F)(F)F)c(CS(=O)(=O)c2cc(C3CC3)cc[n+]2[O-])c1OC(F)F
4. Cc1cc[n+]([O-])c(S(=O)(=O)Cc2c(C(F)(F)F)nn(C)c2OCC(F)(F)C(F)(F)F)c1
5. O=S(=O)(Cc1c(C(F)(F)F)nn(CC(F)(F)F)c1Cl)c1ccc(Cl)c[n+]1[O-]
6. Cn1nc(C(F)(F)F)c(CS(=O)(=O)c2ccc(F)c[n+]2[O-])c1OCC(F)(F)F
7. CC(C)c1cc[n+]([O-])c(S(=O)(=O)Cc2c(C(F)(F)F)nn(C)c2OC(F)F)c1

Solution:
50
90
40
10
60
30
70

Exercise: Tell me measured Plant response rating, Crabgrass, Large for Cn1nc(OC(F)F)c(C[S+]([O-])c2cccc[n+]2[O-])c1C(F)(F)F (stereo not drawn) please.
Solution: 40
